# Tested on: Streptococcus
# Protocol Summary: GAS UMAA2166 growth inhibition – luminescence, BacTiterGlo, counter-screen for streptokinase expression inhibitor project, dose response (AID 1915);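 further: potency for reduction of bacterial viability or growth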
# Assay type: functional, organism-based
Active and inactive are the calls of the source.
In this section we review reported EC50 values for a set of compounds.

- Compound: "COc1ccc(C#Cc2ccc3c(=O)c4ccccc4n(C)c3c2)cc1"
  Experimental Target: "Streptococcus"
  EC50: "102 µM (active)"
- Compound: "Cc1cc(C)c(COc2ccc(/C=N/n3c(C)nnc3S)cc2)c(C)c1"
  Experimental Target: "Streptococcus"
  EC50: "12.2 µM (active)"
- Compound: "Cc1ccc2ccc(C(Nc3cccc(C(F)(F)F)c3)c3cccnc3)c(O)c2n1 (stereo unspecified)"
  Experimental Target: "Streptococcus"
  EC50: "10.7 µM (active)"
- Compound: "Cc1nc2c(C(=O)NCc3ccc4c(c3)OCO4)cnn2c(C)c1Cc1ccc(F)cc1Cl"
  Experimental Target: "Streptococcus"
  EC50: "> 150 µM (not active)"
- Compound: "COCCn1c(-c2cc(OC)c(OC)c(OC)c2)nc2oc3cc(OC)ccc3c(=O)c2c1=O"
  Experimental Target: "Streptococcus"
  EC50: "> 150 µM (not active)"
- Compound: "Cc1c2ccncc2c(C)c2c1[nH]c1ccccc12"
  Experimental Target: "Streptococcus"
  EC50: "7.7 µM (active)"

====

In this section we review reported EC50 values for a set of molecules.
# Experimental Target: Endoribonuclease toxin MazF (Escherichia coli K-12)
# Sequence (P0AE70 whole entry): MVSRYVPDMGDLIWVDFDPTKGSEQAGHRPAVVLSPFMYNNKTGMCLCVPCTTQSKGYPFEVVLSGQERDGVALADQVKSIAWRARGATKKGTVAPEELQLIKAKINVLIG
# Protocol Summary: activation of MazEF endoribonuclease cleavage – biochemical, fluorescence, single-stranded RNA substrate, uHTS hits, dose response (AID 588481)
# Format: functional
Calls of active or inactive are those of the source.

- Molecule: "O=C(Nc1cccc([N+](=O)[O-])c1)Nc1ccc2c(c1)CCC2"
  EC50: "> 99 µM (inactive)"
- Molecule: "Cc1ccc2c(c1)[C@H]1[C@H](CO2)[C@H](c2ccccc2)[C@]2(C)C(=O)N(Cc3ccc(F)cc3)CC(=O)N12"
  EC50: "3.83 µM (active)"
- Molecule: "COc1ccc(/C=N/Nc2ccc([N+](=O)[O-])cc2S(=O)(=O)N2CCN(C)CC2)cc1"
  EC50: "> 99 µM (inactive)"
- Molecule: "Cc1ccccc1NC(=O)C1c2cccc[n+]2CC(=O)N1c1c(C)cccc1C (stereo unspecified)"
  EC50: "> 99 µM (inactive)"
- Molecule: "COc1ccc2c(C)cc(SCC(=O)Nc3cc(C(N)=O)cc(C(N)=O)c3)nc2c1"
  EC50: "> 99 µM (inactive)"
- Molecule: "COc1cc2c3nnc(-c4ccccc4)c-3cn(Cc3ccccc3F)c2cc1OC"
  EC50: "> 99 µM (inactive)"

====

# Experimental Target: Cytochrome P450 1A2 (Homo sapiens);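 further: PubChem cytochrome P450 panel assay, CYP1A2 panel member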
# Sequence (P05177 whole entry): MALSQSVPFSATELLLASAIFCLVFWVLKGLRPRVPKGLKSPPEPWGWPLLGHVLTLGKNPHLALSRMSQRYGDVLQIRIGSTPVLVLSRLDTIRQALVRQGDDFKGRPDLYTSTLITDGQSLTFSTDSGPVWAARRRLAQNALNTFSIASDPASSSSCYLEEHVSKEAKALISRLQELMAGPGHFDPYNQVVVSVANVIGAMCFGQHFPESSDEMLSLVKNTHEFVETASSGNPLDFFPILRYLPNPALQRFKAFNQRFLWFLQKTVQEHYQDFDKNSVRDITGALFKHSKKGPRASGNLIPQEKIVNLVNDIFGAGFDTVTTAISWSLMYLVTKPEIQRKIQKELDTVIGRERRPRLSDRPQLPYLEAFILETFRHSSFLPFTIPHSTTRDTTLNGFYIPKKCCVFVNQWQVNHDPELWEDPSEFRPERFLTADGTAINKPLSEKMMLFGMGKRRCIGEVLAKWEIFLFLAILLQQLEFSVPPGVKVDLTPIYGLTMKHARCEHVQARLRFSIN
Measured Quantity: AC50

- Compound: "C[C@@]12CC[C@@H]3c4ccc(O)cc4CC[C@H]3[C@H]1CC[C@H]2O"
  Measured Quantity: "AC50"
  Endpoint Value: "5.01 µM (inconclusive)"
- Compound: "COC(=O)c1ccccc1OCC(=O)N1CCN(c2ccc(Cl)cc2)CC1"
  Measured Quantity: "AC50"
  Endpoint Value: "14.1 µM (inconclusive)"
- Compound: "COC(=O)[C@@]1(Cc2ccccc2)[C@H]2c3cc(C(=O)N4CCCC4)n(C)c3C[C@H]2CN1C(=O)c1ccccc1"
  Measured Quantity: "AC50"
  Endpoint Value: "25.1 µM (inconclusive)"
- Compound: "c1ccc(SC(Sc2ccccc2)c2ccc3c(c2)OCO3)cc1"
  Measured Quantity: "AC50"
  Endpoint Value: "0.501 µM (inconclusive)"
- Compound: "O=C(CCCN1CCC(O)(c2ccc(Br)cc2)CC1)c1ccc(F)cc1"
  Measured Quantity: "AC50"
  Endpoint Value: "5.01 µM (inconclusive)"
- Compound: "COC(=O)N1CCC2(CCCN(C(c3ccccc3)c3ccccc3)C2)CC1"
  Measured Quantity: "AC50"
  Endpoint Value: "15.8 µM (inconclusive)"
- Compound: "COC(=O)C(Cc1ccc(OC(=O)c2ccc(Cl)cc2)cc1)N1Cc2ccccc2C1=O (configuration not stated)"
  Measured Quantity: "AC50"
  Endpoint Value: "31.6 µM (inconclusive)"
- Compound: "CN(C)CCn1c(C(=O)O)cc2ccccc21"
  Measured Quantity: "AC50"
  Endpoint Value: "0.0158 µM (inconclusive)"
- Compound: "CN(C)c1ncc2nc(-c3ccccc3)c(=O)n(Cc3ccc(F)cc3)c2n1"
  Measured Quantity: "AC50"
  Endpoint Value: "12.6 µM (inconclusive)"
- Compound: "COc1ccc(S(=O)(=O)NC2(C(F)(F)F)N=C3SCCN3C2=O)cc1 (configuration not stated)"
  Measured Quantity: "AC50"
  Endpoint Value: "31.6 µM (inconclusive)"
- Compound: "N=C(Nc1ccc(I)cc1)NC1C2CC3CC(C2)CC1C3 (configuration not stated)"
  Measured Quantity: "AC50"
  Endpoint Value: "39.8 µM (inconclusive)"
- Compound: "Cc1ccccc1OC[C@H](O)CO"
  Measured Quantity: "AC50"
  Endpoint Value: "15.8 µM (inconclusive)"
- Compound: "COc1ccc(CN2CN(c3ccc(Cl)cc3)C(=O)N(n3cnnc3)C2)cc1"
  Measured Quantity: "AC50"
  Endpoint Value: "15.8 µM (inconclusive)"
- Compound: "CC1(C)SC(=S)N(NC(=O)Nc2ccccc2)C1N(O)C(=O)Nc1ccccc1 (configuration not stated)"
  Measured Quantity: "AC50"
  Endpoint Value: "28.2 µM (inconclusive)"
- Compound: "CCOc1cc(/C=N/NC(=O)c2cccc([N+](=O)[O-])c2)ccc1OS(=O)(=O)c1ccccc1"
  Measured Quantity: "AC50"
  Endpoint Value: "7.08 µM (inconclusive)"
- Compound: "O=C(CCCN1CCN(c2ccccn2)CC1)c1ccc(F)cc1"
  Measured Quantity: "AC50"
  Endpoint Value: "15.8 µM (inconclusive)"
- Compound: "NNC(=O)c1ccncc1"
  Measured Quantity: "AC50"
  Endpoint Value: "6.31 µM (inconclusive)"

====

# Protocol Summary: P. falciparum Dd2 growth inhibitors, dose response, SYBR Green, cherry-picked samples (AID 1159567)
# Type: functional, cell-based
Activity calls are given as the source filed them.
In this section we review reported AC50 values for a set of molecules.
Measured Quantity: AC50

- Compound: "COc1ccccc1CN1C[C@@H](C)[C@H](OC)CN(C)C(=O)c2ccc(NC(=O)Nc3ccccc3OC)cc2OC[C@H]1C"
  Endpoint Value: "< 300 nM (active)"
- Compound: "C/C=C/c1ccccc1[C@H]1[C@@H](C#N)N(c2nc(CC)cs2)[C@@H]1CO"
  Endpoint Value: "3110 nM (active)"
- Compound: "COc1ccccc1CN1C[C@@H]2N[C@H](C1)[C@@H]2c1ccc(-c2ccncc2)cc1"
  Endpoint Value: "2480 nM (active)"
- Compound: "COc1ccc(-c2ccc([C@H]3[C@H](C#N)N(C(=O)c4cccnc4)[C@H]3CO)cc2)cc1"
  Endpoint Value: "1250 nM (active)"

====

# Experimental Target: UniProt:Q06710
# Sequence (Q06710 whole entry): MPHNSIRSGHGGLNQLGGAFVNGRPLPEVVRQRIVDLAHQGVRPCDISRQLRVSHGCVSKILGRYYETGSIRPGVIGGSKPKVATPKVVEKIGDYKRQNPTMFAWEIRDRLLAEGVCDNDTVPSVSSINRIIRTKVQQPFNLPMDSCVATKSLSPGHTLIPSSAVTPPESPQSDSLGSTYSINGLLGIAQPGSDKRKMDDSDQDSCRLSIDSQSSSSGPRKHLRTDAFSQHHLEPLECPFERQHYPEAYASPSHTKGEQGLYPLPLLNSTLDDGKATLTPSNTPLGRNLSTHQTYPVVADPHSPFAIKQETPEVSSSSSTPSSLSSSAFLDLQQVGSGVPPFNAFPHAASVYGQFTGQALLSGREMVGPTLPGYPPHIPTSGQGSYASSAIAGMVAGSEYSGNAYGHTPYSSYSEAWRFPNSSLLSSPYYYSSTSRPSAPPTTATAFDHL
# Protocol Summary: PAX8 transcriptional activity inhibition in RMG-I – RMG-I cells, luciferase, cherry-pick, dose response (AID 687027);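 further: luciferase reporter driven by Pax8 target thyroperoxidase promoter measured by SteadyGlo luminescence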
# Type: functional, cell-based
Active and inactive are the calls of the source.

- Compound: "COc1ccc(CN(C)C[C@H]2OCCCC[C@H](C)Oc3ccc(NC(=O)Nc4ccc(C(F)(F)F)cc4)cc3C(=O)N([C@@H](C)CO)C[C@H]2C)cc1"
  AC50: "5.98 µM (active)"
- Compound: "Cc1ccccc1OCC(=O)Nc1cccc(C(=O)O)c1"
  AC50: "2.3 µM (active)"
- Compound: "COc1ccc(S(=O)(=O)Nc2ccc3c(c2)CC(=O)N([C@@H](C)CO)C[C@@H](C)[C@@H](CN(C)Cc2ccc(-c4ccccc4)cc2)O3)cc1"
  AC50: "24.6 µM (active)"
- Compound: "CN(C)CCNC(=O)c1cccc(-c2cnc3c(NC=O)cc(-c4cccc(C(F)(F)F)c4)cn23)c1"
  AC50: "9.07 µM (active)"
- Compound: "COc1cc(C(=O)NCC(c2cccs2)N2CCOCC2)ccc1OCc1ccc(Cl)cc1 (stereo not drawn)"
  AC50: "22 µM (active)"
- Compound: "C[C@H](O)C#Cc1ccc2c(c1)O[C@@H](CN(C)Cc1ccc(-c3ccccc3)cc1)[C@@H](C)CN([C@@H](C)CO)S2(=O)=O"
  AC50: "11.5 µM (active)"
- Compound: "Oc1cccc2cc(Nc3ccccc3)cnc12"
  AC50: "1.37 µM (active)"
- Compound: "O=C(/C=C/c1cccs1)NC(=S)NNC(=O)c1ccccc1O"
  AC50: "2.35 µM (active)"

====

# Experimental Target: High affinity choline transporter 1 (Homo sapiens, UniProt Q9GZV3)
# Sequence (Q9GZV3 whole entry): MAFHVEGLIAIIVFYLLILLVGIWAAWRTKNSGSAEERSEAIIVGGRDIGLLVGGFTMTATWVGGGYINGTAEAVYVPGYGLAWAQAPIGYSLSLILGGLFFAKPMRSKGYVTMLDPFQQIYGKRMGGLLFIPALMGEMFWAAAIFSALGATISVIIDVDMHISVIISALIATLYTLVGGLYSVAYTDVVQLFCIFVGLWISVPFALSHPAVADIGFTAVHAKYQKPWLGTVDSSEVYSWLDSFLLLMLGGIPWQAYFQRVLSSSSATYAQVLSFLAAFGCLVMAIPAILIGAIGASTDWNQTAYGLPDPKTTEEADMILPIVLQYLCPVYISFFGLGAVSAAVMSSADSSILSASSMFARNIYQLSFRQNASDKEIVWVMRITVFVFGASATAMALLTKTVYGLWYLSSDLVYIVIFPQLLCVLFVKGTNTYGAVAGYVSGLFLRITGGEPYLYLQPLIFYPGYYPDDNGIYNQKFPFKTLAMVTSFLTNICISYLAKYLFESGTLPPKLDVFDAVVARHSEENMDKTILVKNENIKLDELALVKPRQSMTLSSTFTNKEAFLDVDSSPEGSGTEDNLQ
# Protocol Summary: human choline transporter blockers, potency – cell-based, 5-point CRC, membrane potential dye, dose response (AID 504840)
# Assay type: functional
Active and inactive are the calls of the source.

- Compound: "CN1Cc2sc(N)c(C#N)c2CC1(C)C"
  IC50: "22.9 µM (active)"
- Compound: "CCc1nnc(NC(=O)c2nc(S(=O)(=O)Cc3ccc(C)cc3)ncc2Cl)s1"
  IC50: "3.31 µM (active)"
- Compound: "O=C(NCCCn1ccnc1)c1cn(-c2ccccc2)nc1-c1ccc(F)cc1"
  IC50: "11.5 µM (active)"
- Compound: "CCOC(=O)N1CCN(C(=O)C2CCN(c3ncnc4c3sc3cccc(F)c34)CC2)CC1"
  IC50: "13.8 µM (active)"
- Compound: "Cc1ccc(-c2csc(NC(=O)c3ccccc3F)c2C(=O)O)cc1"
  IC50: "11.5 µM (active)"
- Compound: "CCn1c(SCCC(C)C)nnc1-c1c[nH]c2ccccc12"
  IC50: "0.955 µM (active)"
- Compound: "COc1ccc(C(=O)NC(Cc2ccc(OC(=O)c3ccc(OC)cc3)cc2)C(=O)O)cc1 (stereo not drawn)"
  IC50: "9.12 µM (active)"
- Compound: "O=S(=O)(Nc1nc2ccccc2nc1Nc1cccc(S(=O)(=O)N2CCCCC2)c1)c1ccccc1"
  IC50: "12 µM (active)"
